# assay method text: small-molecule microarray binders of probe aDKK1, primary screen, biochemical, biotinylated probe, 635/667 nm fluorescence (AID 1099);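 further: score merges 667nm spot fluorescence with signal to noise across triplicate slides; reference of the scale not given here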
# assay conditions: higher = more signal
As shown below, each of these molecules has a reported composite z-score value.
Respond using a number only.

Look up composite z-score for this molecule: C=CC[C@H](OC(=O)Nc1ccc(OC)cc1)c1ccc(O)c2ccccc12
0.121

Next molecule: CO[C@H]1O[C@H](CO)[C@@H](OC(=O)Nc2ccccc2-c2ccccc2)[C@H](OC(=O)Nc2ccc3c(c2)OCO3)[C@@H]1OC(=O)Nc1ccc2c(c1)OCO2
0.198

Next molecule: COc1ccc([Si](C)(C)[C@@H]2[C@@H](CCO)O[C@]3(C(=O)N(Cc4cccc(N5C(=O)c6cccc7cccc5c67)c4)c4ccccc43)[C@H]2C)cc1
0.0019

Next molecule: COC(=O)Cn1c(C(=O)N2CCCC2)cc2c1C[C@H]1CN(C(=O)c3ccccc3)[C@@](Cc3ccc(F)cc3)(C(=O)OC)[C@@H]21
0.222
